Target: human GLP-1 receptor (Homo sapiens, UniProt P43220)
Sequence (P43220 24-463): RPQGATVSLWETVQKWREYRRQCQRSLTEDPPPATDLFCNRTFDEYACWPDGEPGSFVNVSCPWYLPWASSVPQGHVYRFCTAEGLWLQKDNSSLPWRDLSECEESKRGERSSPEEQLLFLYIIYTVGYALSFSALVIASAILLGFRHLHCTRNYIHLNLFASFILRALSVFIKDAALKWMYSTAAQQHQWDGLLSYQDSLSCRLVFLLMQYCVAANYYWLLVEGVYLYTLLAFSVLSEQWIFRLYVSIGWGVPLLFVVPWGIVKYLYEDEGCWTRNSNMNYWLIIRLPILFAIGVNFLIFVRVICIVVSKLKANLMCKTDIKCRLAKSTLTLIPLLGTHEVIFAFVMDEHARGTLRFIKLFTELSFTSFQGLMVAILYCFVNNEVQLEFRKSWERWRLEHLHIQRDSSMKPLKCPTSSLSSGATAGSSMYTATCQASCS
Assay: cAMP production assay in CHO cells expressing human GLP-1 receptor
Format: cell-based
Details: Table 18; maximum activation compared to GLP-1
measurement.name: % Max Effect (%)

| molecule | recorded.measurement |
| --- | --- |
| HS9_DSB7_L26P: HS9_DSB7 with peptide point mutation L26P; SEQ ID NO: 463 (protein) HGEGTFTSDLSKQMEEECVRLFIEWPKNGGPSSGAPPPGCGGGGGSGGGGSGGGGSADIQMTQSPSSLSASVGDRVTITCQASQDVKTAVAWYQQKPGKAPKLLIYSASYRYTGVPSRFSGSGSGTDFTFTISSLQPEDIATYYCQQRYSLWRTFGQGTKLEIK | 60 |
| HS9_DSB7_G2F: HS9_DSB7 with peptide point mutation G2F; SEQ ID NO: 450 (protein) HFEGTFTSDLSKQMEEECVRLFIEWLKNGGPSSGAPPPGCGGGGGSGGGGSGGGGSADIQMTQSPSSLSASVGDRVTITCQASQDVKTAVAWYQQKPGKAPKLLIYSASYRYTGVPSRFSGSGSGTDFTFTISSLQPEDIATYYCQQRYSLWRTFGQGTKLEIK | 69 |
| HS9_DSB7_G2I: HS9_DSB7 with peptide point mutation G2I; SEQ ID NO: 449 (protein) HIEGTFTSDLSKQMEEECVRLFIEWLKNGGPSSGAPPPGCGGGGGSGGGGSGGGGSADIQMTQSPSSLSASVGDRVTITCQASQDVKTAVAWYQQKPGKAPKLLIYSASYRYTGVPSRFSGSGSGTDFTFTISSLQPEDIATYYCQQRYSLWRTFGQGTKLEIK | 87 |
| HS9_DSB7_L26H: HS9_DSB7 with peptide point mutation L26H; SEQ ID NO: 468 (protein) HGEGTFTSDLSKQMEEECVRLFIEWHKNGGPSSGAPPPGCGGGGGSGGGGSGGGGSADIQMTQSPSSLSASVGDRVTITCQASQDVKTAVAWYQQKPGKAPKLLIYSASYRYTGVPSRFSGSGSGTDFTFTISSLQPEDIATYYCQQRYSLWRTFGQGTKLEIK | 87 |
| HS9_DSB7_G2Q: HS9_DSB7 with peptide point mutation G2Q; SEQ ID NO: 447 (protein) HQEGTFTSDLSKQMEEECVRLFIEWLKNGGPSSGAPPPGCGGGGGSGGGGSGGGGSADIQMTQSPSSLSASVGDRVTITCQASQDVKTAVAWYQQKPGKAPKLLIYSASYRYTGVPSRFSGSGSGTDFTFTISSLQPEDIATYYCQQRYSLWRTFGQGTKLEIK | 86 |
| HS9_DSB7_G2Y: HS9_DSB7 with peptide point mutation G2Y; SEQ ID NO: 444 (protein) HYEGTFTSDLSKQMEEECVRLFIEWLKNGGPSSGAPPPGCGGGGGSGGGGSGGGGSADIQMTQSPSSLSASVGDRVTITCQASQDVKTAVAWYQQKPGKAPKLLIYSASYRYTGVPSRFSGSGSGTDFTFTISSLQPEDIATYYCQQRYSLWRTFGQGTKLEIK | 10 |
| HS9_DSB7_G2N: HS9_DSB7 with peptide point mutation G2N; SEQ ID NO: 448 (protein) HNEGTFTSDLSKQMEEECVRLFIEWLKNGGPSSGAPPPGCGGGGGSGGGGSGGGGSADIQMTQSPSSLSASVGDRVTITCQASQDVKTAVAWYQQKPGKAPKLLIYSASYRYTGVPSRFSGSGSGTDFTFTISSLQPEDIATYYCQQRYSLWRTFGQGTKLEIK | 31 |
